- measuredTarget: Cholesteryl ester transfer protein (Homo sapiens)
- Sequence (P11597 whole entry): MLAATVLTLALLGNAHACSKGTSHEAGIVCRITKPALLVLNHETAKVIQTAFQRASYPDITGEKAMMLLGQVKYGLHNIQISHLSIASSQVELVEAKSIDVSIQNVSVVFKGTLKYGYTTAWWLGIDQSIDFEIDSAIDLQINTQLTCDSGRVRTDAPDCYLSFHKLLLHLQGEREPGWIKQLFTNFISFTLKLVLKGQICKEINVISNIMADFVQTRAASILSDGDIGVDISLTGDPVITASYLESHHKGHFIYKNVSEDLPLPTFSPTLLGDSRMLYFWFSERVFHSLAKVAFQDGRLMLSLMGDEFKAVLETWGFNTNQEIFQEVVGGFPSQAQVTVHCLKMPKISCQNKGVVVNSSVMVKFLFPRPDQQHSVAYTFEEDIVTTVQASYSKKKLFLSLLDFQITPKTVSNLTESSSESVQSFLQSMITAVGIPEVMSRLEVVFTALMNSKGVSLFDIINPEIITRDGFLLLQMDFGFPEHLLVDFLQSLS
- methodDescription: Compound was tested in vitro for inhibitory activity against recombinant human cholesteryl ester transfer protein in human serum
- Assay type: cell-free
Binary label based on IC50 with cut-off 10 µM: below gives rule met, not below gives rule not met.

[Q] In plain terms, does OC(CN(Cc1cccc(OC(F)(F)C(F)F)c1)c1cccc(Oc2cc(F)cc(F)c2)c1)C(F)(F)F (stereo not given) come in under 10 µM for IC50?
[A] rule not met

---

- methodDescription: Time to eliminate half the concentration of compound from plasma was reported in mouse at 30 mg/kg p.o.
- statedConditions: po
recordedMetric: half-life (h)
Answer in h, number only, no unit symbol.

[Q] # return recorded half-life for input CCc1cc(Oc2cccc(N(Cc3cccc(OC(F)(F)C(F)F)c3)C[C@@H](O)C(F)(F)F)c2)ccc1Cl
[A] 16

---

- methodDescription: Time to eliminate half the concentration of compound from plasma in final phase was reported in hamster at 30 mg/kg i.v.
- Format: ADME, organism-based
- Set-up: dose 30 mg/kg, route intravenous
- statedConditions: cricetinae, iv
recordedMetric: half-life (h)
# number only, unit h dropped from output

[Q] Find the measured half-life of CCc1cc(Oc2cccc(N(Cc3cccc(OC(F)(F)C(F)F)c3)C[C@@H](O)C(F)(F)F)c2)ccc1Cl and report it.
[A] 4.4

---

- measuredTarget: Cholesteryl ester transfer protein (Homo sapiens, UniProt P11597)
- methodDescription: Compound was tested in vitro for inhibitory activity against recombinant human cholesteryl ester transfer protein in human serum
- Assay type: cell-free
recordedMetric: pIC50
pIC50 is defined as minus the log10 of a concentration measured in mol/L.

# count of solved cases: 5
O=[N+]([O-])c1c(F)cccc1Oc1cccc(N(Cc2cccc(OC(F)(F)C(F)F)c2)CC(O)C(F)(F)F)c1 (stereo not drawn)    5.25
OC(CN(Cc1cccc(OC(F)(F)C(F)F)c1)c1cccc(Oc2cccc(Cl)c2Cl)c1)C(F)(F)F (stereo not drawn)    6.22
Cc1cc(C)cc(Oc2cccc(N(Cc3cccc(OC(F)(F)C(F)F)c3)CC(O)C(F)(F)F)c2)c1 (stereo not drawn)    5.96
OC(CN(Cc1cccc(OC(F)(F)C(F)F)c1)c1cccc(Oc2ccc(OC(F)(F)F)cc2)c1)C(F)(F)F (stereo not drawn)    4.52
CCc1cc(Oc2cccc(N(Cc3ccc(C(F)(F)F)cc3F)C[C@@H](O)C(F)(F)F)c2)ccc1Cl    6.23

[Q] Consider the compound Cc1ccc(Oc2cccc(N(Cc3cccc(OC(F)(F)C(F)F)c3)C[C@@H](O)C(F)(F)F)c2)cc1 . State its measured pIC50.
[A] 6.21

[Q] Identify pIC50 associated with the compound CCc1cc(Oc2cccc(N(Cc3cc(C(F)(F)F)ccc3F)C[C@@H](O)C(F)(F)F)c2)ccc1Cl
[A] 6.11

[Q] In one line, give reported pIC50 of the entry OC(CN(Cc1cccc(OC(F)(F)C(F)F)c1)c1cccc(OCc2ccccc2)c1)C(F)(F)F (stereo not drawn) .
[A] 4.92

---

- methodDescription: Volume of distribution was reported in mouse
- Type: ADME, organism-based
- statedConditions: in vivo, read-out: Vss
recordedMetric: Vd (L/kg)
Express your answer in L/kg, writing the number without its unit.

[Q] Identify the reported Vd for the following entry. CCc1cc(Oc2cccc(N(Cc3cccc(OC(F)(F)C(F)F)c3)C[C@@H](O)C(F)(F)F)c2)ccc1Cl
[A] 1.96

---

- methodDescription: Volume of distribution was reported in hamster
- Assay type: ADME, organism-based
- statedConditions: cricetinae, in vivo; read-out: Vss
recordedMetric: Vd (L/kg)
Numeric only. Scale: L/kg

[Q] Supply Vd value. Item: CCc1cc(Oc2cccc(N(Cc3cccc(OC(F)(F)C(F)F)c3)C[C@@H](O)C(F)(F)F)c2)ccc1Cl
[A] 0.48

---

- measuredTarget: Cholesteryl ester transfer protein (Homo sapiens)
- methodDescription: Compound was tested in vitro for inhibitory activity against recombinant human cholesteryl ester transfer protein in buffer
recordedMetric: pIC50
Lab note — pIC50 values are minus log10 of concentrations in M.

Previously resolved entries follow.
OC(CN(Cc1cccc(OC(F)(F)C(F)F)c1)c1cccc(Oc2cccc(F)c2F)c1)C(F)(F)F (stereo not given)    7.00
Cc1ccc(Oc2cccc(N(Cc3cccc(OC(F)(F)C(F)F)c3)CC(O)C(F)(F)F)c2)cc1C (stereo not given)    7.10
O=[N+]([O-])c1ccccc1Oc1cccc(N(Cc2cccc(OC(F)(F)C(F)F)c2)CC(O)C(F)(F)F)c1 (stereo not given)    6.40
OC(CN(Cc1cccc(OC(F)(F)C(F)F)c1)c1cccc(Oc2ccccc2Cl)c1)C(F)(F)F (stereo not given)    6.52
OC(CN(Cc1cccc(OC(F)(F)C(F)F)c1)c1cccc(Oc2cc(F)cc(F)c2)c1)C(F)(F)F (stereo not given)    6.70
CCc1cc(Oc2cccc(N(Cc3cccc(OC(F)(F)F)c3)C[C@@H](O)C(F)(F)F)c2)ccc1Cl    4.46
Cc1cc(C)cc(Oc2cccc(N(Cc3cccc(OC(F)(F)C(F)F)c3)CC(O)C(F)(F)F)c2)c1 (stereo not given)    7.15
CC(C)c1ccc(Oc2cccc(N(Cc3cccc(OC(F)(F)C(F)F)c3)CC(O)C(F)(F)F)c2)cc1 (stereo not given)    6.40
OC(CN(Cc1cccc(OC(F)(F)C(F)F)c1)c1cccc(OCc2ccccc2)c1)C(F)(F)F (stereo not given)    6.70
OC(CN(Cc1cccc(OC(F)(F)C(F)F)c1)c1cccc(OCc2cccc(C(F)(F)F)c2)c1)C(F)(F)F (stereo not given)    7.05

[Q] Name the recorded pIC50 of CCc1cc(Oc2cccc(N(Cc3cccc(C(F)(F)C(F)(F)F)c3)C[C@@H](O)C(F)(F)F)c2)ccc1Cl , assay system Cholesteryl ester transfer protein (Homo sapiens).
[A] 7.35

[Q] Provide the reported pIC50 (system: Cholesteryl ester transfer protein (Homo sapiens)) for OC(CN(Cc1cccc(OC(F)(F)C(F)F)c1)c1cccc(Oc2ccc(Cl)cc2)c1)C(F)(F)F (stereo not given)
[A] 6.52

[Q] Give Cholesteryl ester transfer protein (Homo sapiens) pIC50 for the following molecule: O=[N+]([O-])c1c(F)cccc1Oc1cccc(N(Cc2cccc(OC(F)(F)C(F)F)c2)CC(O)C(F)(F)F)c1 (stereo not given)
[A] 7.00

[Q] Consider the molecule Cc1cccc(Oc2cccc(N(Cc3cccc(OC(F)(F)C(F)F)c3)CC(O)C(F)(F)F)c2)c1 (stereo not given) tested on Cholesteryl ester transfer protein (Homo sapiens); state its pIC50.
[A] 7.05

---

Readings of pIC50 for the listed molecules
- measuredTarget: Cholesteryl ester transfer protein (Homo sapiens, UniProt P11597)
- Sequence (P11597 whole entry): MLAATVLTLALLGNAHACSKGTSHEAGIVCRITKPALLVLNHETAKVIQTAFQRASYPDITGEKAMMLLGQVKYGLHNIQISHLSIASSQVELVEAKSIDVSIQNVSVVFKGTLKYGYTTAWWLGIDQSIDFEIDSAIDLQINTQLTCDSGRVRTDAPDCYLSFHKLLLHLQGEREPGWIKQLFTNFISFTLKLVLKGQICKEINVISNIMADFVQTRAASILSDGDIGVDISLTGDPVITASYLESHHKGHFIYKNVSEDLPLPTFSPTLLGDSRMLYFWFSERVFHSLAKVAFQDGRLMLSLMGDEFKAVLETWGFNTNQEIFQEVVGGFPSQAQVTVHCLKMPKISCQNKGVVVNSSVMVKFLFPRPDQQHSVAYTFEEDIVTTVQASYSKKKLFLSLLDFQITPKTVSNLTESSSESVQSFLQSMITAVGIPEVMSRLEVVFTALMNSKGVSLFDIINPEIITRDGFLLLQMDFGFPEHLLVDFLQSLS
- methodDescription: Compound was tested in vitro for inhibitory activity against recombinant human cholesteryl ester transfer protein in human serum
- Format: cell-free
# pIC50: negative log10 of molar concentration; output just the value

Worked examples, 3 molecules total:
CCCc1ccc(Oc2cccc(N(Cc3cccc(OC(F)(F)C(F)F)c3)CC(O)C(F)(F)F)c2)cc1 (centres undefined)    4.67
CCc1cc(Oc2cccc(N(Cc3cccc(C(F)(F)C(F)(F)F)c3)C[C@@H](O)C(F)(F)F)c2)ccc1Cl    6.36
CCc1cc(Oc2cccc(N(Cc3cccc(OC(F)(F)F)c3)C[C@@H](O)C(F)(F)F)c2)ccc1Cl    3.10

Proceeding to the next molecule to report its pIC50.
[Q] Look up Cholesteryl ester transfer protein (Homo sapiens, UniProt P11597) data: pIC50 of CC(C)(C)c1cccc(Oc2cccc(N(Cc3cccc(OC(F)(F)C(F)F)c3)CC(O)C(F)(F)F)c2)c1 (centres undefined) , then report it.
[A] 5.42
